Tested on: OVCAR-8 ovarian
experiment.notes: NCI-60 one-dose screen, 48 h
assay.conditions: 10 µM unless noted
The panel holds about 83,000 compounds, 20% with a hit somewhere; the sample as a whole holds those more often. The source made the active and inactive calls. The calls were made as follows: active = growth percent below 10; inactive = the rest.
One label from this list, please: active, inactive

compound	target.or.test.system	class.name
C[C@H]1[C@H](C)CC[C@]2(C(=O)O)CC[C@]3(C)C(=CC[C@@H]4[C@@]5(C)C/C(=C/c6cccnc6)[C@H](O)C(C)(C)[C@@H]5CC[C@]43C)[C@H]12	OVCAR-8 ovarian	inactive

Q: Can you look up the reported call for COc1ccc2c(c1)c(-c1noc(-c3cn(C)c4ncc(F)cc34)n1)cn2C for me?
A: inactive

Q: // repeat for O=C1CC(c2ccc3c(c2)OCO3)Nc2ccccc21 (stereo not drawn) and report
A: inactive

Q: Thanks! And O=C(O)c1cccc(CN2CCN(c3cc4c(cc3F)c(=O)c(C(=O)O)cn4C3CC3)CC2)c1O ?
A: inactive

Q: What would you report for C1=C[C@H]2O[C@@H]1c1ccc3[nH]ccc3c12 ?
A: inactive

Q: Subsequent entry: N#CC1C(=O)NC(c2ccccc2[N+](=O)[O-])c2sc3c(F)cccc3c21 (stereo not drawn)
A: inactive

Q: Repeat for the following compound: O=C(CCN1CCCCC1)c1ccc2ccccc2c1
A: inactive

Q: What do you have for C=C(C)[C@@H]1CC[C@]2(C(=O)NCCCCCCN(CCCN)CCCN)CC[C@]3(C)[C@H](CC[C@@H]4[C@@]5(C)CC[C@H](OCCCN)C(C)(C)[C@@H]5CC[C@]43C)[C@@H]12 ?
A: active

###

System: DU-145 prostate
experiment.notes: NCI-60 one-dose screen, 48 h (100 = growth as untreated, 0 = no growth, -100 = all killed)
assay.conditions: 10 µM unless noted
Compounds without any hit were thinned out: in the full panel of roughly 83,000, 20% have a hit.
// reported growth per item
Your answer is read as %, so omit the unit and give the number.

Examples with answers:
molecule	unit.spec	growth
NC1=NC(=O)NC1(c1ccccc1)c1ccccc1	%	99.5
O=C1/C(=C/c2cccc(OCc3ccccc3)c2)Oc2cc(OCCN3CCCCC3)ccc21	%	88.1
CCCSc1nc(N)nc2nc[nH]c12	%	119
CCN(CC)CCCC(C)Nc1ccnc2cc(Cl)c(SCc3ccccc3)cc12 (stereo not given)	%	25.4
c1cc2ccc1CNCCN1CCNCc3ccc(cc3)Oc3ccc(cc3)CNCCN(CCNCc3ccc(cc3)O2)CCNCc2ccc(cc2)Oc2ccc(cc2)CNCC1	%	-88.6
CCOC(=O)C1=C(C(=O)c2ccc(Br)cc2)C(c2ccc(Br)cc2)NC(=S)N1 (stereo not given)	%	113
CCCCCCCCCCCCCCNC(=O)Nc1ccc(Cl)c(Cl)c1	%	40.1
O=C(CCNCc1ccccc1)c1ccccc1	%	105

Q: Value wanted: growth (DU-145 prostate) of entry NC(=S)Cc1ccccc1
A: 104

Q: # iterate: COc1ccc(OC)c(NC=O)c1
A: 105

Q: Another: Cc1ccc(NC(=O)N[C@@H](Cc2cc(F)cc(F)c2)C(=O)N[C@@H]2C(=O)N3CCC[C@H]3C(=O)N3CCCC[C@H]3C(=O)N[C@@H](C)C(=O)N3C[C@H](C)C[C@H]3C(=O)O[C@H]2C)cc1
A: 28.8

Q: And the next one, Cc1cc(C)c(O)c(CNCCCCCCNCc2cc(C)cc(C)c2O)c1 ?
A: 7.45

Q: Follow-up entry: CN(C)c1ccc(-c2ccc(-c3ccc(C(=N)N)cc3)s2)cc1
A: -88.4

Q: Can you check Nc1cccc2c1C(=O)c1cccc(NC(=O)c3ccccc3)c1C2=O next?
A: 6.99

Q: Can you check O=C(Nc1ccc(CN2CCOCC2)c(C(F)(F)F)c1)c1nc2ccc3[nH]ncc3c2c2c1CCCC2 next?
A: 104

Q: Try N/C(=N\c1nc2ccccc2[nH]1)NC(=O)Cc1cccc2ccccc12 next.
A: 92.8
